# credit: the NIST ThermoML archive (doi:10.1016/j.jct.2005.04.010)

Test: activity coefficient (dimensionless); of the first substance listed, at infinite dilution; xn = mol fraction of the nth substance listed
Conditions: 333.15 K; Liquid; dilutor; x1 = 0
Values of activity coefficient greater than or equal to 3 map to Y; values below map to N.

Compound	Discrete label
CCCCC [pentane] + CCCCCCCCn1cc[n+](C)c1.O=S(=O)([N-]S(=O)(=O)C(F)(F)F)C(F)(F)F	Y
C1CCCCC1 [cyclohexane] + CCCCCCCCn1cc[n+](C)c1.O=S(=O)([N-]S(=O)(=O)C(F)(F)F)C(F)(F)F	Y
C=CCCCC [hex-1-ene] + CCCCCCCCn1cc[n+](C)c1.O=S(=O)([N-]S(=O)(=O)C(F)(F)F)C(F)(F)F	Y
C1=CCCCC1 [cyclohexene] + CCCCCCCCn1cc[n+](C)c1.O=S(=O)([N-]S(=O)(=O)C(F)(F)F)C(F)(F)F	N
C=CCCC [1-pentene] + CCCC[N+]1(C)CCCC1.O=S(=O)([N-]S(=O)(=O)C(F)(F)F)C(F)(F)F	Y
C1=CCCC1 [cyclopentene] + CCCCCCCCn1cc[n+](C)c1.O=S(=O)([N-]S(=O)(=O)C(F)(F)F)C(F)(F)F	N
CCCCCCCC [octane] + CCCC[N+]1(C)CCCC1.O=S(=O)([N-]S(=O)(=O)C(F)(F)F)C(F)(F)F	Y
CC(C)O [propan-2-ol] + CCCC[N+]1(C)CCCC1.O=S(=O)([N-]S(=O)(=O)C(F)(F)F)C(F)(F)F	N
C=CCCCC [hex-1-ene] + CCCCCC[n+]1ccn(C)c1.O=S(=O)([N-]S(=O)(=O)C(F)(F)F)C(F)(F)F	Y
CCCCC [pentane] + CCCCCC[n+]1ccn(C)c1.O=S(=O)([N-]S(=O)(=O)C(F)(F)F)C(F)(F)F	Y
CO [methanol] + CCCCCC[n+]1ccn(C)c1.O=S(=O)([N-]S(=O)(=O)C(F)(F)F)C(F)(F)F	N
C=CCCCCC [1-heptene] + CCCCCCCCn1cc[n+](C)c1.O=S(=O)([N-]S(=O)(=O)C(F)(F)F)C(F)(F)F	Y
C=CCCC [1-pentene] + CCCCCC[n+]1ccn(C)c1.O=S(=O)([N-]S(=O)(=O)C(F)(F)F)C(F)(F)F	Y
C=CCCCCCC [oct-1-ene] + CCCC[N+]1(C)CCCC1.O=S(=O)([N-]S(=O)(=O)C(F)(F)F)C(F)(F)F	Y

---

Experiment: activity coefficient (dimensionless); of the first substance listed, at infinite dilution; xn = mol fraction of the nth substance listed
Conditions: 323.15 K; Liquid; dilutor; x1 = 0
Measured activity coefficient, listed per entry for reference.

Molecule	activity coefficient
C=CCCCCC [1-heptene] + CCCC[N+]1(C)CCCC1.O=S(=O)([N-]S(=O)(=O)C(F)(F)F)C(F)(F)F	9.69
C1CCCCC1 [cyclohexane] + CCCCCCCCn1cc[n+](C)c1.O=S(=O)([N-]S(=O)(=O)C(F)(F)F)C(F)(F)F	3.48
CCCCCCC [heptane] + CCCCCC[n+]1ccn(C)c1.O=S(=O)([N-]S(=O)(=O)C(F)(F)F)C(F)(F)F	10.1
C1CCCC1 [cyclopentane] + CCCC[N+]1(C)CCCC1.O=S(=O)([N-]S(=O)(=O)C(F)(F)F)C(F)(F)F	5.41

---

Assay: activity coefficient (dimensionless); of the first substance listed, at infinite dilution; xn = mol fraction of the nth substance listed
Details: 303.15 K; Liquid; Chromatography; x1 = 0
Property measured: activity coefficient

Molecule	Property measured	Value observed
C1=CCCCC1 [cyclohexene] + CCCCCCCCn1cc[n+](C)c1.O=S(=O)([N-]S(=O)(=O)C(F)(F)F)C(F)(F)F	activity coefficient	2.41
CCCCCCC [heptane] + CCCCCC[n+]1ccn(C)c1.O=S(=O)([N-]S(=O)(=O)C(F)(F)F)C(F)(F)F	activity coefficient	11.2
C1CCCCC1 [cyclohexane] + CCCCCC[n+]1ccn(C)c1.O=S(=O)([N-]S(=O)(=O)C(F)(F)F)C(F)(F)F	activity coefficient	5.48
C=CCCC [1-pentene] + CCCCCCCCn1cc[n+](C)c1.O=S(=O)([N-]S(=O)(=O)C(F)(F)F)C(F)(F)F	activity coefficient	2.52

---

Test: activity coefficient (dimensionless); of the first substance listed, at infinite dilution; xn = mol fraction of the nth substance listed
Details: 323.15 K; Liquid; dilutor; x1 = 0

Molecule	activity coefficient
CCCCC [pentane] + CCCC[N+]1(C)CCCC1.O=S(=O)([N-]S(=O)(=O)C(F)(F)F)C(F)(F)F	8.62
C1=CCCCC1 [cyclohexene] + CCCCCCCCn1cc[n+](C)c1.O=S(=O)([N-]S(=O)(=O)C(F)(F)F)C(F)(F)F	2.33
C1=CCCCC1 [cyclohexene] + CCCCCC[n+]1ccn(C)c1.O=S(=O)([N-]S(=O)(=O)C(F)(F)F)C(F)(F)F	3.07
CCCCCCC [heptane] + CCCC[N+]1(C)CCCC1.O=S(=O)([N-]S(=O)(=O)C(F)(F)F)C(F)(F)F	18.2

---

Experiment: activity coefficient (dimensionless); of the first substance listed, at infinite dilution; xn = mol fraction of the nth substance listed
Settings: 323.15 K; Liquid; Chromatography; x1 = 0
Simple rule here: activity coefficient less than 3 is yes, otherwise no.

Molecule	Discrete label
C1CCCCC1 [cyclohexane] + CCCCCC[n+]1ccn(C)c1.O=S(=O)([N-]S(=O)(=O)C(F)(F)F)C(F)(F)F	no
C=CCCCCC [1-heptene] + CCCCCCCCn1cc[n+](C)c1.O=S(=O)([N-]S(=O)(=O)C(F)(F)F)C(F)(F)F	no
c1ccccc1 [benzene] + CCCCCCCCn1cc[n+](C)c1.O=S(=O)([N-]S(=O)(=O)C(F)(F)F)C(F)(F)F	yes
CCCCC [pentane] + CCCCCCCCn1cc[n+](C)c1.O=S(=O)([N-]S(=O)(=O)C(F)(F)F)C(F)(F)F	no
C=CCCC [1-pentene] + CCCCCC[n+]1ccn(C)c1.O=S(=O)([N-]S(=O)(=O)C(F)(F)F)C(F)(F)F	no
CCCCCC [hexane] + CCCCCCCCn1cc[n+](C)c1.O=S(=O)([N-]S(=O)(=O)C(F)(F)F)C(F)(F)F	no
C1=CCCCC1 [cyclohexene] + CCCCCC[n+]1ccn(C)c1.O=S(=O)([N-]S(=O)(=O)C(F)(F)F)C(F)(F)F	no
CCO [ethanol] + CCCCCCCCn1cc[n+](C)c1.O=S(=O)([N-]S(=O)(=O)C(F)(F)F)C(F)(F)F	yes
